For each entry below, report its protein stability index value.
B1: ETS1 (parent)
chain: FSEPSFITESYQTLHPISSEELLS

Variants of: B1
Test: protein stability index of a GFP-peptide fusion (GPS, HEK-293T) (PSI 1-6); higher = more stable;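 further: lentivirally expressed fusions sorted by FACS into six bins by GFP to DsRed ratio, PSI derived from sequencing read proportions per bin multiplied by bin number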
Settings: c terminus: a fixed tail appended
One number for each entry.

Answered cases to consult:
RESIDUE_CODES: FSEPSFITESYHTLHPISSEELLS [Q12H]
READOUT_NUMBER: 2.05

RESIDUE_CODES: FSEPSDITESYQTLHPISSEELLS [F6D]
READOUT_NUMBER: 4.8

RESIDUE_CODES: FSESSFITESYQTLHPISSEELLS [P4S]
READOUT_NUMBER: 2.39

RESIDUE_CODES: FDEPSFITESYQTLHPISSEELLS [S2D]
READOUT_NUMBER: 4.15

RESIDUE_CODES: FSEPDFITESYQTLHPISSEELLS [S5D]
READOUT_NUMBER: 2.51

// each variant listed below needs its protein stability index
1. FSEPSFITESYTTLHPISSEELLS [Q12T]
2. FSEPSFITESYQTLHPISSKELLS [E20K]
3. FSEPSYITESYQTLHPISSEELLS [F6Y]

1. 1.59
2. 1.82
3. 2.74

// each variant listed below needs its protein stability index
1. FSEPSFITESYQTLHPISSEKLLS [E21K]
2. FSEPSFPTESYQTLHPISSEELLS [I7P]
3. FSEPSFITESYQTLHPINSEELLS [S18N]
4. FSEPVFITESYQTLHPISSEELLS [S5V]
5. FSEPSFITESYQTLHPRSSEELLS [I17R]
6. FSEPSFITESYQTLHPISSPELLS [E20P]

1.84
3.09
2.04
1.91
2.59
1.73
